// data source = the supplement of paper PMC9112550

tested on: Escherichia coli TOP10; assay: shrunken log2 fold change of peptide-encoding DNA abundance (4.5 h post-induction vs induction); higher = less antimicrobial activity (less host growth inhibition); settings: time post-induction: 4.5 h; library: site-saturation at positions 5, 18, 19, 20;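 also: peptides expressed intracellularly from a pBAD plasmid library in pooled LB shake-flask culture, induced with 0.3% L-arabinose, DNA abundance read by NGS, three biological replicates, DESeq2 with apeglm shrinkage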
property-name: shrunken log2 fold change
I only need the number, thanks.

Reference set, count: 5
| chain-sequence | shrunken log2 fold change |
| --- | --- |
| RRIRYRPPRLPRPRPRPPEPPRP | 0.35 |
| RRIRWRPPRLPRPRPRPCALPRP | -0.321 |
| RRIRPRPPRLPRPRPRPSIFPRP | -0.284 |
| RRIRPRPPRLPRPRPRPIFFPRP | 0.211 |
| RRIRARPPRLPRPRPRPKAMPRP | 0.00028 |

## Task What value of measured shrunken log2 fold change is listed for RRIRKRPPRLPRPRPRPDYTPRP ?
## Result -0.193

## Task Consider next the sequence RRIRGRPPRLPRPRPRPQVWPRP in the same way.
## Result 0.846
